- Test system: Escherichia coli TOP10
- procedureText: shrunken log2 fold change of peptide-encoding DNA abundance (4.5 h post-induction vs induction); higher = less antimicrobial activity (less host growth inhibition)
- measurementConditions: time post-induction: 4.5 h; library: site-saturation at positions 5, 18, 19, 20
Rule: shrunken log2 fold change of -0.02 or more gives met; anything lower gives not met.

Examples with answers:
| residueString | qualitativeLabel |
| --- | --- |
| RRIRTRPPRLPRPRPRPMLEPRP | met |
| RRIRVRPPRLPRPRPRPSRYPRP | not met |
| RRIRYRPPRLPRPRPRPMTVPRP | not met |

Tell me whether shrunken log2 fold change is at least -0.02 here: RRIRRRPPRLPRPRPRPPISPRP
met

Tell me whether shrunken log2 fold change is at least -0.02 here: RRIRCRPPRLPRPRPRPLKMPRP
not met

Tell me whether shrunken log2 fold change is at least -0.02 here: RRIRTRPPRLPRPRPRPVIIPRP
not met

Tell me whether shrunken log2 fold change is at least -0.02 here: RRIRKRPPRLPRPRPRPWDFPRP
met

Tell me whether shrunken log2 fold change is at least -0.02 here: RRIRMRPPRLPRPRPRPYRRPRP
met

Tell me whether shrunken log2 fold change is at least -0.02 here: RRIRPRPPRLPRPRPRPVGLPRP
met

Tell me whether shrunken log2 fold change is at least -0.02 here: RRIRFRPPRLPRPRPRPKARPRP
met

Tell me whether shrunken log2 fold change is at least -0.02 here: RRIRVRPPRLPRPRPRPVALPRP
met

Tell me whether shrunken log2 fold change is at least -0.02 here: RRIRWRPPRLPRPRPRPNDQPRP
met

Tell me whether shrunken log2 fold change is at least -0.02 here: RRIRLRPPRLPRPRPRPIRTPRP
met

Tell me whether shrunken log2 fold change is at least -0.02 here: RRIRVRPPRLPRPRPRPPVPPRP
met

Tell me whether shrunken log2 fold change is at least -0.02 here: RRIRRRPPRLPRPRPRPKQAPRP
met

Tell me whether shrunken log2 fold change is at least -0.02 here: RRIRFRPPRLPRPRPRPMNTPRP
met

Tell me whether shrunken log2 fold change is at least -0.02 here: RRIRTRPPRLPRPRPRPPCEPRP
met

Tell me whether shrunken log2 fold change is at least -0.02 here: RRIRERPPRLPRPRPRPYCSPRP
not met

Tell me whether shrunken log2 fold change is at least -0.02 here: RRIRCRPPRLPRPRPRPARPPRP
met

Tell me whether shrunken log2 fold change is at least -0.02 here: RRIRMRPPRLPRPRPRPNNIPRP
not met

Tell me whether shrunken log2 fold change is at least -0.02 here: RRIRNRPPRLPRPRPRPPKLPRP
met

Tell me whether shrunken log2 fold change is at least -0.02 here: RRIRNRPPRLPRPRPRPADGPRP
met

Tell me whether shrunken log2 fold change is at least -0.02 here: RRIRMRPPRLPRPRPRPIPKPRP
met

Tell me whether shrunken log2 fold change is at least -0.02 here: RRIRTRPPRLPRPRPRPAICPRP
not met

---

- Test system: Escherichia coli TOP10
- procedureText: shrunken log2 fold change of peptide-encoding DNA abundance (4.5 h post-induction vs induction); higher = less antimicrobial activity (less host growth inhibition)
- measurementConditions: time post-induction: 4.5 h; library: site-saturation at positions 5, 18, 19, 20
quantity: shrunken log2 fold change
Answers are plain numbers.

Below, each entry is followed by its recorded shrunken log2 fold change result.
| residueString | shrunken log2 fold change |
| --- | --- |
| RRIRKRPPRLPRPRPRPRGLPRP | 0.41 |
| RRIRWRPPRLPRPRPRPNYWPRP | 1.21 |
| RRIRYRPPRLPRPRPRPPWSPRP | -0.372 |

Hi! Can you tell me shrunken log2 fold change for each of these sequences?
1. RRIRARPPRLPRPRPRPNFCPRP
2. RRIRKRPPRLPRPRPRPSLVPRP
3. RRIRHRPPRLPRPRPRPQMLPRP
4. RRIRVRPPRLPRPRPRPRFMPRP
5. RRIRKRPPRLPRPRPRPGTFPRP

1. 0.24
2. 0.174
3. -0.0829
4. -0.459
5. 0.253

Hi! Can you tell me shrunken log2 fold change for each of these sequences?
1. RRIRGRPPRLPRPRPRPALFPRP
2. RRIRCRPPRLPRPRPRPWENPRP
3. RRIRWRPPRLPRPRPRPSMHPRP
4. RRIRSRPPRLPRPRPRPWWTPRP

1.23
0.0328
-0.0863
-0.127

---

- Tested on: Escherichia coli TOP10
- procedureText: shrunken log2 fold change of peptide-encoding DNA abundance (4.5 h post-induction vs induction); higher = less antimicrobial activity (less host growth inhibition)
- measurementConditions: time post-induction: 4.5 h; library: site-saturation at positions 5, 18, 19, 20
quantity: shrunken log2 fold change
Answers are plain numbers.

Below, each entry is followed by its recorded shrunken log2 fold change result.
| residueString | measurement |
| --- | --- |
| RRIRFRPPRLPRPRPRPKFAPRP | 0.102 |
| RRIRCRPPRLPRPRPRPFSWPRP | -0.141 |
| RRIRCRPPRLPRPRPRPWMDPRP | -0.169 |
| RRIRYRPPRLPRPRPRPWQHPRP | -0.185 |
| RRIRPRPPRLPRPRPRPYWTPRP | -0.68 |
| RRIRQRPPRLPRPRPRPEILPRP | 0.00769 |

Hi! Can you tell me shrunken log2 fold change for each of these sequences?
1. RRIRERPPRLPRPRPRPKPKPRP
2. RRIRHRPPRLPRPRPRPTFRPRP
3. RRIRARPPRLPRPRPRPREGPRP
4. RRIRWRPPRLPRPRPRPHMRPRP
5. RRIRWRPPRLPRPRPRPNMQPRP
6. RRIRPRPPRLPRPRPRPGSRPRP

0.0931
0.0997
1.1
0.494
-0.0262
0.144

Hi! Can you tell me shrunken log2 fold change for each of these sequences?
1. RRIRQRPPRLPRPRPRPRMKPRP
2. RRIRSRPPRLPRPRPRPDVHPRP
3. RRIRQRPPRLPRPRPRPSGFPRP

1. -0.249
2. -0.0954
3. -0.102

Hi! Can you tell me shrunken log2 fold change for each of these sequences?
1. RRIRNRPPRLPRPRPRPDWKPRP
2. RRIRGRPPRLPRPRPRPLSVPRP
3. RRIRLRPPRLPRPRPRPWVIPRP
4. RRIRARPPRLPRPRPRPYYGPRP
5. RRIRYRPPRLPRPRPRPHNIPRP
6. RRIRKRPPRLPRPRPRPRIRPRP
7. RRIRSRPPRLPRPRPRPWGVPRP

[-0.11, 0.383, -0.0649, -0.363, -0.238, 0.344, -0.412]

Hi! Can you tell me shrunken log2 fold change for each of these sequences?
1. RRIRWRPPRLPRPRPRPPYTPRP
2. RRIRFRPPRLPRPRPRPQIFPRP
3. RRIRARPPRLPRPRPRPGNDPRP

1. -0.137
2. -0.172
3. -0.00116

Hi! Can you tell me shrunken log2 fold change for each of these sequences?
1. RRIRMRPPRLPRPRPRPQNEPRP
2. RRIRLRPPRLPRPRPRPDRTPRP
3. RRIRNRPPRLPRPRPRPLIAPRP

0.155
0.0027
-0.305

---

- System: Escherichia coli TOP10
- procedureText: shrunken log2 fold change of peptide-encoding DNA abundance (4.5 h post-induction vs induction); higher = less antimicrobial activity (less host growth inhibition)
- measurementConditions: time post-induction: 4.5 h; library: site-saturation at positions 5, 18, 19, 20
quantity: shrunken log2 fold change
Answers are plain numbers.

| residueString | shrunken log2 fold change |
| --- | --- |
| RRIRSRPPRLPRPRPRPCRTPRP | -0.2 |
| RRIRDRPPRLPRPRPRPYAAPRP | -0.2 |
| RRIRIRPPRLPRPRPRPVGRPRP | 0.0883 |
| RRIRSRPPRLPRPRPRPWPHPRP | -0.0676 |

Hi! Can you tell me shrunken log2 fold change for each of these sequences?
1. RRIRPRPPRLPRPRPRPTTYPRP
2. RRIRMRPPRLPRPRPRPLIGPRP
3. RRIRRRPPRLPRPRPRPTAHPRP
4. RRIRNRPPRLPRPRPRPVDRPRP
5. RRIRTRPPRLPRPRPRPIMFPRP

1: -0.141; 2: -0.0325; 3: 1.51; 4: 0.148; 5: -0.937

---

- Test system: Escherichia coli TOP10;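 also: peptides expressed intracellularly from a pBAD plasmid library in pooled LB shake-flask culture, induced with 0.3% L-arabinose, DNA abundance read by NGS, three biological replicates, DESeq2 with apeglm shrinkage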
- procedureText: shrunken log2 fold change of peptide-encoding DNA abundance (4.5 h post-induction vs induction); higher = less antimicrobial activity (less host growth inhibition)
- measurementConditions: time post-induction: 4.5 h; library: site-saturation at positions 5, 18, 19, 20
quantity: shrunken log2 fold change
Give bare numbers.

| residueString | system | quantity | measurement |
| --- | --- | --- | --- |
| RRIRQRPPRLPRPRPRPCQIPRP | Escherichia coli TOP10 | shrunken log2 fold change | -0.298 |

Hi! Can you tell me shrunken log2 fold change for each of these sequences?
1. RRIRQRPPRLPRPRPRPCMHPRP
2. RRIRGRPPRLPRPRPRPGKCPRP
3. RRIRWRPPRLPRPRPRPEACPRP
4. RRIRFRPPRLPRPRPRPVRIPRP
5. RRIRMRPPRLPRPRPRPHCWPRP

1: -0.0431; 2: -0.0229; 3: 1.5; 4: -0.0436; 5: -0.207

Hi! Can you tell me shrunken log2 fold change for each of these sequences?
1. RRIRTRPPRLPRPRPRPWYTPRP
2. RRIRWRPPRLPRPRPRPRHFPRP
3. RRIRRRPPRLPRPRPRPIQIPRP
4. RRIRTRPPRLPRPRPRPQLWPRP

[-0.555, 0.223, -0.00118, -0.13]

Hi! Can you tell me shrunken log2 fold change for each of these sequences?
1. RRIRIRPPRLPRPRPRPRFDPRP
2. RRIRNRPPRLPRPRPRPSVMPRP
3. RRIRVRPPRLPRPRPRPNSFPRP
4. RRIRSRPPRLPRPRPRPLYTPRP

1: -0.282; 2: -0.281; 3: -0.0668; 4: -0.422

Fill in reported shrunken log2 fold change for this entry: RRIRHRPPRLPRPRPRPIWNPRP
-0.892
